Reference source: patent US10047051B2

# TESTED_ON: CFTR ΔF508 mutant (Homo sapiens, UniProt P13569, DEL508-508)
# Sequence (P13569 with tags, fused parts or gaps DEL508-508): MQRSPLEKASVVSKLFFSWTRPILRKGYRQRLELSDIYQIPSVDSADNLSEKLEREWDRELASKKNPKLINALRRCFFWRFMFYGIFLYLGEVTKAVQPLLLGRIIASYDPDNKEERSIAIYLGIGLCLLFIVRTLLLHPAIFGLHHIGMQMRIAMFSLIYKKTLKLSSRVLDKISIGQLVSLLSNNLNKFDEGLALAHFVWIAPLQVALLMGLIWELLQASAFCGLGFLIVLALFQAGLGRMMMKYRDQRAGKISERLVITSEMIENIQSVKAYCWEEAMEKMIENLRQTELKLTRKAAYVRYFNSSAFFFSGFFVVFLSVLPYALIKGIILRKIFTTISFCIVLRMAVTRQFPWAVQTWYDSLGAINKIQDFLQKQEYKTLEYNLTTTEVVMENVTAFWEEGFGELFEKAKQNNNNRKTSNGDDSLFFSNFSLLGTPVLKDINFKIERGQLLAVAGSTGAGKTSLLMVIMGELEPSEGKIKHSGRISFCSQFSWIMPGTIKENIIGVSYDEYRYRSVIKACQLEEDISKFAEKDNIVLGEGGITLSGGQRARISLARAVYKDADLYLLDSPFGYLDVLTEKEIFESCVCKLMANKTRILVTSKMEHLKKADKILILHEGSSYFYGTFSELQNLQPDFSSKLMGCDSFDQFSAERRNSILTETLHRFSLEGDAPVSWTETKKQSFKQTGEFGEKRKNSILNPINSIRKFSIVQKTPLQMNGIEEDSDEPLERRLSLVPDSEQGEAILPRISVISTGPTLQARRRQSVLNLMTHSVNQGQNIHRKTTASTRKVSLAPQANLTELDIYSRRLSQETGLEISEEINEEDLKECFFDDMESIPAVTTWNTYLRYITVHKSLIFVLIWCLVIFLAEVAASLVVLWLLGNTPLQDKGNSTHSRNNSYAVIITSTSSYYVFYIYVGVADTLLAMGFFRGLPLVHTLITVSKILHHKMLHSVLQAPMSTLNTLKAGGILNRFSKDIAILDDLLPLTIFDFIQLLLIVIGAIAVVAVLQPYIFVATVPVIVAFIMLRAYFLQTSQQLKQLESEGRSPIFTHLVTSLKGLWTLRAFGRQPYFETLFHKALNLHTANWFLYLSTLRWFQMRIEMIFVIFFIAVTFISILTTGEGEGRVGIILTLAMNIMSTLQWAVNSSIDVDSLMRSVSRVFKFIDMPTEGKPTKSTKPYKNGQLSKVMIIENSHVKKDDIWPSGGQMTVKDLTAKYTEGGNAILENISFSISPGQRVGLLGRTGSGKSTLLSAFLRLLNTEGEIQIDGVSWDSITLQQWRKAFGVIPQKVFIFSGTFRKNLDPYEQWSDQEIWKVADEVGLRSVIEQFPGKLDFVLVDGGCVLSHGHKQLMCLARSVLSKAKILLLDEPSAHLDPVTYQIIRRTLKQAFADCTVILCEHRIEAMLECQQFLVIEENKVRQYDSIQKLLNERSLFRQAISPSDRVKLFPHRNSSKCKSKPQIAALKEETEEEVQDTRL
# ASSAY_NAME: YFP-halide influx assay for the CFTR-ΔF508 mutation (CFBE41o- cells)
# EXPERIMENTAL_PARAMETERS: forskolin 10.67 μM, from (1−F/F0) vs concentration plot
# Procedure: The YFP halide influx assay measured the functionality of the cystic fibrosis Transmembrane Conductance regulator (CFTR) channels in the cystic fibrosis bronchial epithelium cell line CFBE41o-. The assay was used to evaluate the capacity of compounds to increase the open probability of existing CFTR channels in the membrane. […] The I-induced quenching of fluorescence was recorded on an immediately after injection of iodide for 2 minutes on an FDSS/μCell (Hamamatsu). […]
MEASUREMENT_KIND: EC50 (nM)

Consider the worked cases shown below.
[
  {
    "COMPOUND": "CN(C)C(=O)C1CN(C(=O)c2ncc(S(=O)(=O)c3ccc(OC(F)(F)F)cc3)cc2N)C1",
    "TESTED_ON": "CFTR ΔF508 mutant (Homo sapiens, UniProt P13569, DEL508-508)",
    "MEASUREMENT_KIND": "EC50",
    "EXPERIMENTAL_RESULT": 140
  },
  {
    "COMPOUND": "Nc1cc(S(=O)(=O)c2ccc(OC(F)(F)F)cc2)cnc1C(=O)NCCC(O)C(F)(F)F (stereo not shown)",
    "TESTED_ON": "CFTR ΔF508 mutant (Homo sapiens, UniProt P13569, DEL508-508)",
    "MEASUREMENT_KIND": "EC50",
    "EXPERIMENTAL_RESULT": 8
  },
  {
    "COMPOUND": "Nc1cc(S(=O)(=O)c2ccc(C(F)(F)F)cc2)cnc1C(=O)NCC(F)(F)F",
    "TESTED_ON": "CFTR ΔF508 mutant (Homo sapiens, UniProt P13569, DEL508-508)",
    "MEASUREMENT_KIND": "EC50",
    "EXPERIMENTAL_RESULT": 36.2
  },
  {
    "COMPOUND": "Nc1cc(S(=O)(=O)c2ccc(OC(F)(F)F)cc2)cnc1C(=O)NCC1CCCO1 (stereo not shown)",
    "TESTED_ON": "CFTR ΔF508 mutant (Homo sapiens, UniProt P13569, DEL508-508)",
    "MEASUREMENT_KIND": "EC50",
    "EXPERIMENTAL_RESULT": 69.1
  },
  {
    "COMPOUND": "CC(C)C(C)NC(=O)c1ncc(S(=O)(=O)c2ccc(C(F)(F)F)cc2)cc1N (stereo not shown)",
    "TESTED_ON": "CFTR ΔF508 mutant (Homo sapiens, UniProt P13569, DEL508-508)",
    "MEASUREMENT_KIND": "EC50",
    "EXPERIMENTAL_RESULT": 378
  },
  {
    "COMPOUND": "Nc1cc(S(=O)(=O)c2ccc(OC(F)(F)F)cc2F)cnc1C(=O)NC[C@H]1CCOC1",
    "TESTED_ON": "CFTR ΔF508 mutant (Homo sapiens, UniProt P13569, DEL508-508)",
    "MEASUREMENT_KIND": "EC50",
    "EXPERIMENTAL_RESULT": 34.9
  },
  {
    "COMPOUND": "COCCCNC(=O)c1ncc(S(=O)(=O)c2ccc(OC(F)(F)F)cc2)cc1N",
    "TESTED_ON": "CFTR ΔF508 mutant (Homo sapiens, UniProt P13569, DEL508-508)",
    "MEASUREMENT_KIND": "EC50",
    "EXPERIMENTAL_RESULT": 86.2
  },
  {
    "COMPOUND": "Nc1cc(S(=O)(=O)c2ccc(F)cc2)c(Br)nc1C(=O)NC[C@@H](O)C(F)(F)F",
    "TESTED_ON": "CFTR ΔF508 mutant (Homo sapiens, UniProt P13569, DEL508-508)",
    "MEASUREMENT_KIND": "EC50",
    "EXPERIMENTAL_RESULT": 1
  },
  {
    "COMPOUND": "CCC(CO)NC(=O)c1ncc(S(=O)(=O)c2ccc(OC(F)(F)F)cc2)cc1N (stereo not shown)",
    "TESTED_ON": "CFTR ΔF508 mutant (Homo sapiens, UniProt P13569, DEL508-508)",
    "MEASUREMENT_KIND": "EC50",
    "EXPERIMENTAL_RESULT": 36.1
  },
  {
    "COMPOUND": "Nc1cc(S(=O)(=O)c2ccc(C(F)(F)F)cc2)cnc1C(=O)NCC1(O)CC1",
    "TESTED_ON": "CFTR ΔF508 mutant (Homo sapiens, UniProt P13569, DEL508-508)",
    "MEASUREMENT_KIND": "EC50",
    "EXPERIMENTAL_RESULT": 8.5
  }
]

A: Nc1cc(S(=O)(=O)c2ccc(C(F)(F)F)cc2)cnc1C(=O)N1CCC[C@@H]1CO
B: C[C@H](O)CNC(=O)c1ncc(S(=O)(=O)N(C)Cc2ccc(F)cc2)cc1N
Ask | Please indicate which has the smaller reported EC50: A , or B . // output: label of the selected item
Reply | B

1: CC1(F)CN(C(=O)c2ncc(S(=O)(=O)c3ccc(C(F)(F)F)cc3)cc2N)C1
2: CC(C)[C@@H](CO)NC(=O)c1ncc(S(=O)(=O)c2ccc(OC(F)(F)F)cc2)cc1N
Ask | Please indicate which has the smaller reported EC50: 1 , or 2 . // output: label of the selected item
Reply | 1
(1: 9.6 nM, 2: 42.5 nM)
